For each of the substances below, state its koff.
Test system: IgG-Fab of anti-HER2 monoclonal antibody (Trastuzumab)
Assay: Biacore 3000 surface plasmon resonance analysis of affinity of SpG variants for immobilized IgG-Fab
Type: binding, human
Details: Anti-HER2 antibody - Fab immobilized on CM5; peptide 0.1-0.8 μM; 25° C., pH 7.4; 1:1 binding model
Return type: number; implicit unit s⁻¹.

Query block: For the substance GB2*-E15W.1d: SpG-β2* one residue variant with E15W, amino acid sequence SEQ ID NO: 23 (TTYKLVINGKTLKGWTTTKAVDAETAERAFRQYATDNGVEGMWTYDPATKTFTVTE; SpG Mutant) , what koff is on record?
Result block: 0.011

Query block: For the substance GB2*-E15Y.1d: SpG-β2* one residue variant with E15Y, amino acid sequence SEQ ID NO: 21 (TTYKLVINGKTLKGYTTTKAVDAETAERAFRQYATDNGVEGMWTYDPATKTFTVTE; SpG Mutant) , what koff is on record?
Result block: 0.01

Query block: For the substance GB2*-Wild.1d: SpG β2 domain variant having excellent thermal stability, SEQ ID NO: 3; comparative example before introducing the mutation (TTYKLVINGKTLKGETTTKAVDAETAERAFRQYATDNGVEGMWTYDPATKTFTVTE; SpG Mutant) [reference compound] , what koff is on record?
Result block: 0.038

Query block: For the substance GB2*-T02R.1d: SpG-β2* one residue variant with T02R, amino acid sequence SEQ ID NO: 19 (TRYKLVINGKTLKGETTTKAVDAETAERAFRQYATDNGVEGMWTYDPATKTFTVTE; SpG Mutant) , what koff is on record?
Result block: 0.01
